Value source: patent US20260000079A1

System: Arabidopsis wildtype and ibr10, ech2, ech2ibr10, or acx1acx5 mutants
Assay type: in vivo, Arabidopsis thaliana
Measurement parameters: roots treated with 1 μM ascr #18
Observation type: ascaroside levels in ascr #18-treated acx1acx5 mutant compared with wildtype

1) C[C@H](CCC(=O)O)O[C@@H]1O[C@@H](C)[C@H](O)C[C@H]1O ... not detected
2) C[C@H](CCCCC(=O)O)O[C@@H]1O[C@@H](C)[C@H](O)C[C@H]1O ... not detected
